Hey, just so you know, these numbers are from paper PMC8949615.

- tested_system: aldose reductase (Homo sapiens, UniProt P15121)

- compound: "COc1cc(C(=O)O)cc(OC)c1O [Syringic acid, 4-Hydroxy-3,5-dimethoxybenzoic acid]"
  result_units: "µM"
  Ki: 8.28

---

- tested_system: UniProt P00690
- Sequence (P00690 16-511): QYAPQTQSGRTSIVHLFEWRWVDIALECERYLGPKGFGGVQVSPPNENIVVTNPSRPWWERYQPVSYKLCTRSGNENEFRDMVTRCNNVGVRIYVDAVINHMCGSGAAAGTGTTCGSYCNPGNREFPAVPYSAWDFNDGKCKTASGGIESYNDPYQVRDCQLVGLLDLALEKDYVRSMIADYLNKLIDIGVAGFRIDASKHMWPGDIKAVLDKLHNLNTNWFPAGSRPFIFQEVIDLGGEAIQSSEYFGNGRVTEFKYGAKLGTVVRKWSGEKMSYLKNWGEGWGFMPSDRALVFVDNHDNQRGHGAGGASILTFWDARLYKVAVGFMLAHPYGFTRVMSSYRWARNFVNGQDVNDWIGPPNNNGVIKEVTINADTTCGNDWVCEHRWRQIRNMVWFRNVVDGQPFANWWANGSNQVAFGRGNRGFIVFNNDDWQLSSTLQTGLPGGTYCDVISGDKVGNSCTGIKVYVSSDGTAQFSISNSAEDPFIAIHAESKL
parameter_measured: IC50 (µM)

- molecule: "COc1cc(C(=O)O)cc(OC)c1O [Syringic acid, 4-Hydroxy-3,5-dimethoxybenzoic acid]"
  parameter_measured: "IC50"
  result_units: "µM"
  value: 127

---

- tested_system: aldose reductase (Homo sapiens, UniProt P15121)
pIC50: −log10 of the molar value.
parameter_measured: pIC50

- compound: "COc1cc(C(=O)O)cc(OC)c1O [Syringic acid, 4-Hydroxy-3,5-dimethoxybenzoic acid]"
  tested_system: "aldose reductase (Homo sapiens, UniProt P15121)"
  value: 4.82

---

- tested_system: α-amylase (Sus scrofa)
- Sequence (P00690 16-511): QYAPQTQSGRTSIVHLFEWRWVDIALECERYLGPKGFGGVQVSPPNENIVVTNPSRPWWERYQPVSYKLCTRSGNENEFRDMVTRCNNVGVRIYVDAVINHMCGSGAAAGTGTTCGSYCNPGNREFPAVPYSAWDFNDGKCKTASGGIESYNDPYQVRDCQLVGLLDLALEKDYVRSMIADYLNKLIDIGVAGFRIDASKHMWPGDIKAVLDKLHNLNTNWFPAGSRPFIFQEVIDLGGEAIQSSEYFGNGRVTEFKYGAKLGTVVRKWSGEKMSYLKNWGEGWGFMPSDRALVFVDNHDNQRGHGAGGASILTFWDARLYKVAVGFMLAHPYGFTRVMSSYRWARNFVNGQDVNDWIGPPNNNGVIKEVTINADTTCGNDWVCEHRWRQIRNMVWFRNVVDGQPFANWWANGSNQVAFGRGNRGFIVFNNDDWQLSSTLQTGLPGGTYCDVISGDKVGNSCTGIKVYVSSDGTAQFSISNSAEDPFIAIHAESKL
- assay_remarks: α-amylase inhibition kinetics (Lineweaver-Burk, secondary plot)
- Type: biochemical, porcine
- condition_summary: secondary plot, mean ± SE

- compound: "COc1cc(C(=O)O)cc(OC)c1O [Syringic acid, 4-Hydroxy-3,5-dimethoxybenzoic acid]"
  Ki: "6.31 µM"
